# EXPERIMENTAL_SYSTEM: DHFR partially purified from rat liver (Rattus norvegicus)
# Sequence (Q920D2 1-187): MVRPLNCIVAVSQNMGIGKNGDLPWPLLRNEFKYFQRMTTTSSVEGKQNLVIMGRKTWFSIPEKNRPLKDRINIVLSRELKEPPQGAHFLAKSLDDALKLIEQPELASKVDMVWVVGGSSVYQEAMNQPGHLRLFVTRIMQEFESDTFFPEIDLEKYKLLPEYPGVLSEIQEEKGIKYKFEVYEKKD
READOUT_TYPE: IC50 (nM)

Sample answers from the record:
{"COMPOUND_SMILES": "COc1ccc(Cc2cnc3nc(N)nc(N)c3c2C)cc1OC", "EXPERIMENTAL_SYSTEM": "DHFR partially purified from rat liver (Rattus norvegicus)", "IC50 (nM)": 7.8}
{"COMPOUND_SMILES": "COc1ccccc1Cc1cnc2nc(N)nc(N)c2c1C", "EXPERIMENTAL_SYSTEM": "DHFR partially purified from rat liver (Rattus norvegicus)", "IC50 (nM)": 50}
{"COMPOUND_SMILES": "Cc1c(Cc2ccccc2)cnc2nc(N)nc(N)c12", "EXPERIMENTAL_SYSTEM": "DHFR partially purified from rat liver (Rattus norvegicus)", "IC50 (nM)": 40}

A = Cc1c(Cc2ccccc2Cl)cnc2nc(N)nc(N)c12
B = CCc1ccc(Cc2cnc3nc(N)nc(N)c3c2C)cc1
C = COc1ccc(Cc2cnc3nc(N)nc(N)c3c2C)cc1
D = Nc1nc(N)c2cc(Cc3ccccc3)cnc2n1
E = Cc1ccc(Cc2cnc3nc(N)nc(N)c3c2C)cc1
Req: Reorder the items by IC50, least to greatest. Write the labels, ordered according to the request.
Resp: A, E, C, B, D
(A: 16 nM, E: 27 nM, C: 53 nM, B: 90 nM, D: 250 nM)
